The measurements presented in this section are drawn from PubChem BioAssay (NCI).

tested on: EKVX NSCLC; experiment: NCI-60 one-dose screen, 48 h (100 = growth as untreated, 0 = no growth, -100 = all killed); conditions: 10 µM unless noted
Compounds without any hit were thinned out: in the full panel of roughly 83,000, 20% have a hit.
Reported growth values are given for each entry in this list.
Observation Type: growth (%)

| Compound | Observation Type | Measured Result |
| --- | --- | --- |
| O=C(Nc1cccc(-c2nc(-c3ccc(NC(=O)c4cccs4)cc3Cl)no2)c1)Nc1ccc(NC(=O)C2CC2)c(C(F)(F)F)c1 | growth | -34.2 |
| O=C(COc1ccc(C2SCC(=O)N2c2ccccc2)cc1)c1ccccc1 (stereo not given) | growth | 81.2 |
| O=S(=O)(Nc1cc(Cl)cc(Cl)c1)c1ccc(-c2cnc(C3CC3)o2)cc1 | growth | 43.9 |
| O=C(CSc1nnc(-c2cccs2)n1-c1ccccc1)Nc1ccc(F)cc1 | growth | 90.9 |
| Cc1nn(-c2ccccc2)cc1/C=N/Nc1nc(Nc2ccccc2)nc(Nc2ccc(S(N)(=O)=O)cc2)n1 | growth | 18.8 |

---

system: SNB-75 CNS; assay: NCI-60 one-dose screen, 48 h (100 = growth as untreated, 0 = no growth, -100 = all killed); details: 10 µM unless noted
About 83,000 compounds went through this panel and 20% of them were active in at least one assay; those are over-represented in the sample as a whole.

| Molecule | growth, % |
| --- | --- |
| COc1c([C@@H](CC(C)C)OC(C)=O)ccc2c1C(=O)OCc1cc(C)cc(O)c1O2 | 50.6 |
| O=C(N/N=C\c1ccc(Cl)cc1)c1ccc2nc(-c3ccc(Br)cc3)[nH]c2c1 | 49.9 |
| C/C(=C(/c1ccc(O)cc1)c1ccc(OCCN2CCCCCC2)cc1)c1ccccc1 | 71.2 |
| COc1cc2c3c(n(CCCNC4CCCCC4)c(=O)c2cc1OC)-c1cc2c(cc1C3=O)OCO2 | 80.6 |
| COc1ccc(CCN2C(=O)CSC2=S)cc1OC | 112 |

---

tested on: OVCAR-5 ovarian; test: NCI-60 one-dose screen, 48 h (100 = growth as untreated, 0 = no growth, -100 = all killed); conditions: 10 µM unless noted
About 83,000 compounds went through this panel and 20% of them were active in at least one assay; those are over-represented in the sample as a whole.

| Molecule | growth / % |
| --- | --- |
| Oc1ccccc1-c1nnc(SCc2ccc(O)c3ncccc23)o1 | 68.4 |
| CN(c1ccc(F)cc1)S(=O)(=O)c1ccc(-c2cnc(C3CC3)o2)cc1 | 49.5 |
| CC(=O)Nc1nc2c(s1)C1=CC[C@H]3[C@@H]4CC[C@H](C(C)=O)[C@@]4(C)CC[C@@H]3[C@@]1(C)CC2 | 80.6 |
| Cn1cc(-c2nn3c(=O)cc(-c4ccccc4)nc3s2)c2cc(F)ccc21 | 75.1 |
| CCOC(=O)Nc1cccc(-n2cnc3cc(-c4ccc(O)cc4)ccc32)c1 | 41.1 |

---

test system: HOP-62 NSCLC; experiment: NCI-60 one-dose screen, 48 h (100 = growth as untreated, 0 = no growth, -100 = all killed); details: 10 µM unless noted
About 83,000 compounds went through this panel and 20% of them were active in at least one assay; those are over-represented in the sample as a whole.
Define the label as 1.0 when growth is strictly less than 80% and as 0.0 in all remaining cases.

| Compound | Category |
| --- | --- |
| O=C1Nc2ccc(Br)cc2/C1=N\c1nnc(-c2ccc(Cl)cc2)o1 | 1.0 |
| O=C(Nc1cccc(Cl)c1)Nc1nc2ccc(-c3cccc4ccccc34)cc2s1 | 1.0 |
| CCOC(=O)/C=c1\sc2n(c1=O)C1C(NN=2)N(CC)C(=O)N1CC (stereo unspecified) | 1.0 |
| COc1ccc(-c2cc(-c3ccc(Cl)cc3)nc3nc(N)nn23)cc1 | 0.0 |
| CCCC(=O)NC(c1cccnc1)c1cc(Cl)c2cccnc2c1O (stereo unspecified) | 1.0 |
| O=C(/C=C1\C=CN(CCCCO)c2ccccc21)n1ccc2ccccc21 | 0.0 |
